Source: patent EP0012435A2

Assay: Ulcerogenic effect (gastric mucosal lesions after oral dose)
Assay type: in vivo, Ratten
Details: rat, gastric mucosa, fasted rats, killed 24 h after dose, UD50 by Litchfield and Wilcoxon, read-out: Ulzerogenität UD50
Provide the recorded TD50 at 24 h for the entries that follow.
Give a bare numeral; the unit mg/kg is implied.

## Input Record request: TD50 at 24 h value, item O=C(Nc1ccc(C(F)(F)F)cc1)c1cnoc1C(F)(F)F
## Output 80

## Input Query Cc1oncc1C(=O)Nc1ccc(F)cc1 [P 25 24 959 Nr. 10, reference compound] next
## Output 250

## Input Query Cc1oncc1C(=O)Nc1ccc(Oc2ccc(C(F)(F)F)cc2)cc1 next
## Output 230

## Input Query CCc1oncc1C(=O)Nc1ccc(C(F)(F)F)cc1 next
## Output 70

----------
Assay: Acute toxicity
Settings: mouse, in vivo, ip; NMRI mice, intraperitoneal, mortality within 7 days; read-out: Toxizität LD50-Bereich (Maus i.p.)
Provide the recorded LD50 at 168 h for the entries that follow.

## Input Record request: LD50 at 168 h value, item Cc1oncc1C(=O)Nc1ccc(Oc2ccc(C(F)(F)F)cc2)cc1
## Output 150 to 300 mg/kg

## Input Query Cc1oncc1C(=O)Nc1ccc(F)cc1 [P 25 24 959 Nr. 10, reference compound] next
## Output 200 to 400 mg/kg

## Input Query CCc1oncc1C(=O)Nc1ccc(C(F)(F)F)cc1 next
## Output 150 to 300 mg/kg
